Value source: PubChem BioAssay

# ASSAY TARGET: Alpha-2C adrenergic receptor (Homo sapiens)
# ASSAY TEXT: modulators of alpha2C/GIRK thallium flux, primary screen, cell-based, HEK293 alpha2C/GIRK1/2 (AID 624);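 also: slope of fluorescence ratio to pre-addition baseline per second over 15 to 24 s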
# COND: thallium flux BTC fluorescence, at 10 µM, actives lie on both sides
slope overview

>  <MOLECULE>
Cc1nnc2n(-c3ccccc3)c(=O)c3c4c(sc3n12)COC(C(C)C)C4 (stereo not drawn)

>  <slope>
0.00506

$$$$
>  <MOLECULE>
Nc1ccc(S(=O)(=O)Nc2ncccn2)cc1

>  <slope>
0.00507

$$$$
>  <MOLECULE>
N[C@@H](Cc1ccc(O)c(I)c1)C(=O)O

>  <slope>
0.00503

$$$$

---

# ASSAY TARGET: Voltage-gated potassium channel subunit beta-2 (Rattus norvegicus)
# ASSAY TEXT: KvBeta positive modulators, primary screen, biochemical, NADPH fluorescence (AID 623);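 also: fluorescence intensity change per second fitted from 20 to 320 s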
# COND: Recombinant KvBeta, NADPH fluorescence decrease slope, 10 min; at 10 µM; stronger effect = lower value
# key: entry, value: NADPH fluorescence slope

>  <COMPOUND>
CC(=O)O[C@H]1C[C@@H]2CC[C@@H]3[C@H](CC[C@@]4(C)[C@H]3C[C@H]([N+]3(C)CCCCC3)[C@@H]4OC(C)=O)[C@@]2(C)C[C@@H]1[N+]1(C)CCCCC1

>  <NADPH fluorescence slope>
2.4e-05

$$$$
>  <COMPOUND>
CC(CN1c2ccccc2Sc2ccccc21)N(C)C (stereo not given)

>  <NADPH fluorescence slope>
-1.7e-05

$$$$
>  <COMPOUND>
CCOC(=O)CSc1nc2ccccc2c(=O)n1C

>  <NADPH fluorescence slope>
-3.8e-05

$$$$
>  <COMPOUND>
CNC(=O)CC(C(=O)O)c1ccc(OC(C)C)cc1 (stereo not given)

>  <NADPH fluorescence slope>
-4e-05

$$$$
>  <COMPOUND>
Clc1ccc(-c2nn3c(-c4cccc(Cl)c4)nnc3s2)cc1

>  <NADPH fluorescence slope>
-9.2e-05

$$$$
>  <COMPOUND>
Nc1nonc1OCCc1ccccc1

>  <NADPH fluorescence slope>
-4.6e-05

$$$$
>  <COMPOUND>
CCOc1ccc(-c2nnc3sc(COc4ccccc4)nn23)cc1

>  <NADPH fluorescence slope>
-0.000151

$$$$
>  <COMPOUND>
Cc1cccc(C)c1N1C(=O)C2ON(c3ccccc3)C(c3ccncc3)C2C1=O (stereo not given)

>  <NADPH fluorescence slope>
-0.000159

$$$$
>  <COMPOUND>
CC1(C)CN(O)CCN1O

>  <NADPH fluorescence slope>
-1.8e-06

$$$$
>  <COMPOUND>
N#C/C(=C\c1ccc(O)c(O)c1)C(=O)NCCCc1ccccc1

>  <NADPH fluorescence slope>
-5.4e-05

$$$$

---

# ASSAY TEXT: inhibitors of TNFa-induced NFkB p65 translocation, primary screen, imaging, HUVEC, MLSMR starter and 10KST1 sets (AID 438);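 also: compound added about 3h40 before a 20 min TNFalpha stimulation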
# COND: HUVEC TNFa-induced p65 nuclear translocation; measured here: nuclei count (cytotoxicity indicator), at 2.08 µM

>  <COMPOUND>
COc1ccc(C(C)=O)cc1CSCCC(=O)O

>  <cell count>
513

$$$$
>  <COMPOUND>
CC(CCc1ccccc1)NCC(O)c1ccc(O)c(C(N)=O)c1 (stereo not given)

>  <cell count>
612

$$$$
>  <COMPOUND>
CCCC(=O)O[C@]1(C(=O)CCl)[C@@H](C)C[C@H]2[C@@H]3CCC4=CC(=O)C=C[C@]4(C)[C@@]3(F)C(=O)C[C@@]21C

>  <cell count>
614

$$$$
>  <COMPOUND>
O=C(O)c1cc(O)c2c(c1)C(=O)c1cccc(O)c1C2=O

>  <cell count>
610

$$$$
>  <COMPOUND>
O=C(CCNNC(=O)c1ccncc1)NCc1ccccc1

>  <cell count>
595

$$$$
>  <COMPOUND>
CCOC(=O)Cn1c(SC)nc2sc3c(c2c1=O)CC(C)(C)OC3

>  <cell count>
655

$$$$
>  <COMPOUND>
CSc1nc(N)nc(SCC(=O)OC(C)C)c1C#N

>  <cell count>
394

$$$$
>  <COMPOUND>
COC(=O)c1ccc(C(=O)OC)c(NC(=O)c2cc3ccccc3o2)c1

>  <cell count>
641

$$$$
>  <COMPOUND>
CC1(C)Cc2c(C#N)c(NCc3ccco3)nc(-c3ccco3)c2CO1

>  <cell count>
598

$$$$
>  <COMPOUND>
Cc1nc2c(=O)n(C)c(=O)[nH]c2n1Cc1ccccc1

>  <cell count>
465

$$$$
